# System: U-937
# method summary: Concentration to inhibit cell proliferation in U 937 cells
# Format: functional, cell-based
# condition info: Homo sapiens
endpoint label: IC50 (nM)

given smiles	endpoint label	number
C=C1/C(=C\C=C2/CCC[C@]3(C)[C@@H]([C@@H](C)COCCCC(C)(C)O)CC[C@@H]23)C[C@@H](O)C[C@@H]1O	IC50	0.01
